Assay: Quantitative High-Throughput drug screen in 47 multiple myeloma cell lines against the NCATS MIPE library collection: JIM3_ECACC cell viability assay (AID 1918963; further: nearly all actives have a fitted effect of over 35% in size)
Details: JIM3 myeloma viability, CellTiter-Glo ATP, 48 h; series mostly up to 45.8 µM
Records with an inconclusive call do not appear. The source made the active and inactive calls. The call rests on the fitted dose curve; in most records, active means well fitted cell-killing curve with a large enough effect; inconclusive means small, poorly fitted or top-dose-only effect; inactive means no such curve, though single readings can be large or run the other way.
Permitted responses: active, inactive

[
  {
    "COMPOUND": "COc1cc([C@H]2Oc3cc([C@H]4Oc5cc(O)cc(O)c5C(=O)[C@H]4O)ccc3O[C@H]2CO)ccc1O",
    "ANSWER_LABEL": "active"
  },
  {
    "COMPOUND": "Cc1cn([C@@H]2C[C@@H](O)[C@H](CO)O2)c(=O)[nH]c1=O",
    "ANSWER_LABEL": "inactive"
  },
  {
    "COMPOUND": "C[C@H]1COC2=C1C(=O)C(=O)c1c2ccc2c1CCCC2(C)C",
    "ANSWER_LABEL": "active"
  },
  {
    "COMPOUND": "CCN1C[C@H](C)n2c(c(O)c3c(=O)n(Cc4ccc(F)c(Cl)c4)nc(C(=O)NC)c32)C1=O",
    "ANSWER_LABEL": "inactive"
  },
  {
    "COMPOUND": "CCOC(=O)N1CCN([N+]([O-])=NOc2cc(ON=[N+]([O-])N3CCN(C(=O)OCC)CC3)c([N+](=O)[O-])cc2[N+](=O)[O-])CC1",
    "ANSWER_LABEL": "active"
  },
  {
    "COMPOUND": "CCNC(=O)CCCC=CC[C@@H]1[C@H](C=CC(O)CCc2ccccc2)[C@@H](O)C[C@@H]1O (some centres undefined)",
    "ANSWER_LABEL": "inactive"
  }
]

For O=C1C(c2c(O)[nH]c3ccccc23)=Nc2ccccc21 , what call appears in the results of this test?
inactive

Next compound: NC(=O)c1nnn(Cc2cc(Cl)c(C(=O)c3ccc(Cl)cc3)c(Cl)c2)c1N
active

Can you handle CNC1[C@H](O)C(O[C@@H]2C(O)C(O[C@H]3O[C@H]([C@@H](C)NC)CC[C@H]3N)[C@@H](N)C[C@H]2N)OC[C@]1(C)O (some centres undefined) next?
inactive

Another compound to look at: COc1ccc2ccc(=O)oc2c1CC=C(C)C
inactive

For CN1CCN2c3ncccc3Cc3ccccc3C2C1 (centres undefined) then?
inactive

Next compound: CCNC(=O)[C@H]1O[C@@H](n2cnc3c(N)nc(NCCc4ccc(CCC(=O)O)cc4)nc32)[C@H](O)[C@H]1O
inactive

# iterate: COc1ccc(-c2cc(=O)c3c(O)cc(O[C@@H]4O[C@H](CO[C@@H]5O[C@@H](C)[C@H](O)[C@@H](O)[C@@H]5O)[C@@H](O)[C@H](O)[C@@H]4O)cc3o2)cc1O
active

And the next one, CO[C@@H]1C(N(C)C(=O)c2ccccc2)C[C@H]2O[C@]1(C)n1c3ccccc3c3c4c(c5c6ccccc6n2c5c31)C(=O)NC4=O (some centres undefined) ?
active

What do we get for CC(C)[C@H](O)C(=O)N[C@@H](C)C(=O)N[C@@H]1C(=O)N(C)CCc2ccccc21 ?
inactive
